Target: T1, IL10Rα/IL2Rγ receptor (human) (UniProt Q13651)
T1 sequence (looked up) 1: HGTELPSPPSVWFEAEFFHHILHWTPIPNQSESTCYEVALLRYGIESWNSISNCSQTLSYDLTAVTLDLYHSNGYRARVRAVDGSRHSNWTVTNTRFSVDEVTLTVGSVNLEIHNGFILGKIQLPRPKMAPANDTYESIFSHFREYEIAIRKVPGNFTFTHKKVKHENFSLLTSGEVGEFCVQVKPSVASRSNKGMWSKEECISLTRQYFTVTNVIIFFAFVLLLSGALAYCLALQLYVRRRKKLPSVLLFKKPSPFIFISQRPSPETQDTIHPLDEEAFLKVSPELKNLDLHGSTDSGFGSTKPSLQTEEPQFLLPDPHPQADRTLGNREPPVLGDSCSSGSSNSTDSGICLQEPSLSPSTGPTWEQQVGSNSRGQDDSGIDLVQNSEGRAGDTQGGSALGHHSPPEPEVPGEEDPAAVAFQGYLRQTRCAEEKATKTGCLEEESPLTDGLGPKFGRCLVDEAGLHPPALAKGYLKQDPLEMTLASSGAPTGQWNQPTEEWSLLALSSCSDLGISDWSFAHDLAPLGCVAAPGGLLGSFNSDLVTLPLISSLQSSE
T1 sequence (looked up) 2: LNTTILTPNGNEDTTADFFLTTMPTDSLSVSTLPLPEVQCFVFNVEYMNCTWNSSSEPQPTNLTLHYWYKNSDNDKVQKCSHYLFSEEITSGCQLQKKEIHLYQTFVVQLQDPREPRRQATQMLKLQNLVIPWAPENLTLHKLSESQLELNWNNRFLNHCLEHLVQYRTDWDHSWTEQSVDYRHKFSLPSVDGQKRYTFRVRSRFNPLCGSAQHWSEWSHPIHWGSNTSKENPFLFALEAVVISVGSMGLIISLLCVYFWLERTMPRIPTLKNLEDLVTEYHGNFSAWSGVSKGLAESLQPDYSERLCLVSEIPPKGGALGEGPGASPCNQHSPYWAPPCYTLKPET
Test: cell-based or functional assay
Items are presented alongside their recorded Granzyme A secretion, CD8 T cells, at 0.1 µM.
Answer format: numeric, pg/mL implied, no suffix.

hIL10Ra_VHH14 - hIL2Rg_VHH19, linker …, tag his (bispecific antibody, not shown: small tags and cut ends) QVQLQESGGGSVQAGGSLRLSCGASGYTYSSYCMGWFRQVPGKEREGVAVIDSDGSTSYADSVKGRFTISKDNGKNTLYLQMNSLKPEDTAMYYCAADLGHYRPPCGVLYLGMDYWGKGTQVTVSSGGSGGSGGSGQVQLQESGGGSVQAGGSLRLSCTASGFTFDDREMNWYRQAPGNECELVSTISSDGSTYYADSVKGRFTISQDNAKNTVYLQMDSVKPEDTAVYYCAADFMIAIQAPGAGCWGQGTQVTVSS
29300
hIL10Ra_VHH14 - hIL2Rg_VHH19, linker GS, tag his (bispecific antibody, not shown: small tags and cut ends) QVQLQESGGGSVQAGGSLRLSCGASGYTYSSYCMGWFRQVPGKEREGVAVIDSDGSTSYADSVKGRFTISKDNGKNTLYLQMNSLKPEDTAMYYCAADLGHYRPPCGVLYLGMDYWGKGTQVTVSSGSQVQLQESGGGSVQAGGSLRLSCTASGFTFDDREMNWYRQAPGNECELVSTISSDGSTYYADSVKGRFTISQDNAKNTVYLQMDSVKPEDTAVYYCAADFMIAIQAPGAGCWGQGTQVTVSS
26100

Query: Identify measured Granzyme A secretion, CD8 T cells, at 0.1 µM corresponding to hIL10Ra_VHH14 - hIL2Rg_VHH19, linker GGGS, tag Fc (bispecific antibody, not shown: a dimerising Fc or GST) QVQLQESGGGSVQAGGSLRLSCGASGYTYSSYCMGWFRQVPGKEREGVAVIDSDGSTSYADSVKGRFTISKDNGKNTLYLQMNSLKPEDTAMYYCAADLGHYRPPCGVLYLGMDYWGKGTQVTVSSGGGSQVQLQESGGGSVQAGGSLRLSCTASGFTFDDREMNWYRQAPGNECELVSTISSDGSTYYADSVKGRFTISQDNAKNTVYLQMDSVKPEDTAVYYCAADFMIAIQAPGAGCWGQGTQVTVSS
Reply: 30000

Query: Annotate the binder hIL10Ra_VHH14 - hIL2Rg_VHH19, linker GGGSGGGS, tag his (bispecific antibody, not shown: small tags and cut ends) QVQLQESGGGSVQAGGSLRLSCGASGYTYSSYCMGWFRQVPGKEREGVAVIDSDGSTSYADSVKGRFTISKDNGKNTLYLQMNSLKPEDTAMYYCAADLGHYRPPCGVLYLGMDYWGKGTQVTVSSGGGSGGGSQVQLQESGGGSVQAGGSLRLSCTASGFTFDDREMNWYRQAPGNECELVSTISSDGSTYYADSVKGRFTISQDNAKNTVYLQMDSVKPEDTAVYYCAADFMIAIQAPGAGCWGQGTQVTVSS with its measured Granzyme A secretion, CD8 T cells, at 0.1 µM.
Reply: 26000

Query: Respond only with Granzyme A secretion, CD8 T cells, at 0.1 µM recorded for hIL10Ra_VHH14 - hIL2Rg_VHH19, linker GGSGGS, tag his (bispecific antibody, not shown: small tags and cut ends) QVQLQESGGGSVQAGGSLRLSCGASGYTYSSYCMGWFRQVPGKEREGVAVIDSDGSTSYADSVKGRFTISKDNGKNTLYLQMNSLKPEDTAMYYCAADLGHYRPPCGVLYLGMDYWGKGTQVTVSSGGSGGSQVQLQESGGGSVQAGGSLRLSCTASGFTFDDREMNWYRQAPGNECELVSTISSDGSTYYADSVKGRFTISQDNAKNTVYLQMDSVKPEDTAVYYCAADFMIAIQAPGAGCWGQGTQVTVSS
Reply: 27100

Query: Give Granzyme A secretion, CD8 T cells, at 0.1 µM for the following binder: hIL10Ra_VHH14 - hIL2Rg_VHH19, No linker, tag his (bispecific antibody, not shown: small tags and cut ends) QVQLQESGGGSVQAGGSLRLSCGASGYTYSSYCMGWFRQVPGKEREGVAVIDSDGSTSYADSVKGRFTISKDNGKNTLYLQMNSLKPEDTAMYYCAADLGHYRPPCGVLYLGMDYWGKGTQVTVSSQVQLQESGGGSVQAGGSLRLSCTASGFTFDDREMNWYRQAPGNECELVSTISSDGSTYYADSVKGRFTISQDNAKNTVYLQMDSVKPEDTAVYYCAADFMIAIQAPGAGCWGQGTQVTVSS
Reply: 22900

Query: Return Granzyme A secretion, CD8 T cells, at 0.1 µM (reported value) for this binder: hIL10Ra_VHH14 - hIL2Rg_VHH19, linker GGGS, tag his (bispecific antibody, not shown: small tags and cut ends) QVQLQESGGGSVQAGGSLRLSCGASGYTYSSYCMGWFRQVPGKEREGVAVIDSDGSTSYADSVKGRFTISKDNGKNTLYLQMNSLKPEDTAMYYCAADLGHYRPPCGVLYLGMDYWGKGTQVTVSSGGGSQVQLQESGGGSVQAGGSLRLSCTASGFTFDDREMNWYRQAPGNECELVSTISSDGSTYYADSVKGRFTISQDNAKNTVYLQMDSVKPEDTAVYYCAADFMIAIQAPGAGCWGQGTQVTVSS
Reply: 23700
